# assay_target: HLA-B4403 (Homo sapiens, UniProt P01889, A223V/A65T/A93T/A95T/D201E/D98Y/E176V/E187L/E204Q/E69K/G107R/H137Y/K202T/L105A/L119I/N104T/N87E/Q56L/Q94N/R106L/R155S/R180L/S101N/S121R/S35A/S48T/T118I/V36M/W191S/Y140D/Y91S)
# method_description: Competitive peptide binding assay, CIR-B4403
# cond: HMy2.CIR-B4403 cells, reference Cy5-CYMEAVAL, class from inhibition at 5 and 15 μM, flow cytometry MFI; read-out: Binding affinity with HLA-B4403
Peptide text beside a SMILES is read from it.
property: IC50

compound	property	result
CC(C)[C@H](NC(=O)[C@H](CC(N)=O)NC(=O)[C@H](Cc1ccc(O)cc1)NC(=O)[C@H](C)NC(=O)[C@@H](N)CCCCN)C(=O)N[C@H](C(=O)N[C@@H](CCC(N)=O)C(=O)N[C@@H](C)C(=O)N[C@@H](Cc1ccccc1)C(=O)O)[C@@H](C)O [Epitope Y62] (H-KAYNVTQAF-OH)	IC50	5 to 15 µM

Query: Any idea what its IC50 is? The compound is CC[C@H](C)[C@H](NC(=O)[C@H](CC(C)C)NC(=O)[C@H](CCC(N)=O)NC(=O)[C@H](CCC(N)=O)NC(=O)[C@@H](NC(=O)[C@@H](NC(=O)[C@H](Cc1ccc(O)cc1)NC(=O)[C@@H](NC(=O)[C@H](CCC(N)=O)NC(=O)[C@@H](N)CC(C)C)[C@@H](C)O)C(C)C)[C@@H](C)O)C(=O)O [Epitope Y118] (H-LQTYVTQQLI-OH; N-terminus and C-terminus assumed)
Result: 5 to 15 µM

###

Measured IC50 of individual entries
# assay_target: HLA-B1502 (Homo sapiens, UniProt P01889, A329T/A93T/A95T/C349S/D201E/D98Y/E187L/E204Q/E69M/E70A/H137Y/K202T/L119I/Q94N/R155S/R180L/S121R/S35A/S48A/T118I/V306I/V36M/Y140S/Y91S)
# method_description: Competitive peptide binding assay, CIR-B1502
# cond: HMy2.CIR-B1502 cells, reference Cy5-[…], class from inhibition at 5 and 15 μM, flow cytometry MFI; read-out: Binding affinity with HLA-B1502
Peptide text beside a SMILES is read from it.

compound	IC50
CC[C@H](C)[C@H](NC(=O)[C@H](C)NC(=O)[C@H](C)NC(=O)[C@H](CC(N)=O)NC(=O)CNC(=O)[C@H](CC(=O)O)NC(=O)[C@H](CCC(N)=O)NC(=O)[C@H](C)NC(=O)[C@@H](N)Cc1ccccc1)C(=O)O [Epitope Y246] (H-FAQDGNAAI-OH; N-terminus and C-terminus assumed)	> 15 µM
CC(C)C[C@H](NC(=O)[C@H](CC(=O)O)NC(=O)[C@H](C)NC(=O)[C@H](C)NC(=O)[C@@H]1CCCN1C(=O)[C@@H](N)CC(C)C)C(=O)N[C@@H](CC(=O)O)C(=O)N[C@@H](CC(=O)O)C(=O)N[C@@H](Cc1ccccc1)C(=O)O [Epitope Y180] (H-LPAADLDDF-OH; N-terminus and C-terminus assumed)	> 15 µM
C[C@H](NC(=O)[C@H](CO)NC(=O)[C@H](CO)NC(=O)[C@@H](N)Cc1ccc(O)cc1)C(=O)N[C@@H](CC(N)=O)C(=O)N[C@@H](CC(N)=O)C(=O)N[C@@H](CS)C(=O)N[C@H](C(=O)N[C@@H](Cc1ccccc1)C(=O)O)[C@@H](C)O [Epitope Y247] (H-YSSANNCTF-OH; N-terminus and C-terminus assumed)	> 15 µM
CC[C@H](C)[C@H](NC(=O)[C@H](C)NC(=O)CNC(=O)[C@@H](NC(=O)[C@H](Cc1ccc(O)cc1)NC(=O)[C@@H](NC(=O)[C@@H](N)CC(C)C)[C@@H](C)O)[C@@H](C)O)C(=O)N[C@@H](CCCCN)C(=O)N[C@@H](CC(C)C)C(=O)O [Epitope Y243] (H-LTYTGAIKL-OH; N-terminus and C-terminus assumed)	> 15 µM
C[C@H](NC(=O)CNC(=O)[C@H](C)NC(=O)[C@@H](NC(=O)[C@@H](N)Cc1c[nH]c2ccccc12)[C@@H](C)O)C(=O)N[C@@H](C)C(=O)N[C@@H](C)C(=O)N[C@@H](Cc1ccc(O)cc1)C(=O)N[C@@H](Cc1ccc(O)cc1)C(=O)O [Epitope Y174] (H-WTAGAAAYY-OH; N-terminus and C-terminus assumed)	< 5 µM

Query: Need IC50 of CSCC[C@H](NC(=O)[C@H](C)NC(=O)[C@@H]1CCCN1C(=O)[C@H](CC(=O)O)NC(=O)[C@H](C)NC(=O)[C@H](C)NC(=O)[C@H](Cc1ccc(O)cc1)NC(=O)[C@@H](NC(=O)[C@@H](N)CC(C)C)C(C)C)C(=O)O [Epitope Y165] (H-LVYAADPAM-OH; N-terminus and C-terminus assumed) , thanks.
Result: 5 to 15 µM

###

# assay_target: HLA-B3501 (Homo sapiens, UniProt P01889, A329T/A93T/A95T/C349S/D201E/D98Y/E176V/E187L/E204Q/E69T/I218V/K202T/L119I/Q94N/R155S/R180L/S121R/S35A/S48A/T118I/V127L/V306I/V36M/Y140S/Y91F)
# method_description: Competitive peptide binding assay, CIR-B3501
# cond: HMy2.CIR-B3501 cells, reference Cy5-[…], class from inhibition at 5 and 15 μM, flow cytometry MFI; read-out: Binding affinity with HLA-B3501
pIC50: −log10 of the molar value. Peptide text beside a SMILES is read from it.
property: pIC50

compound	property	result
CC(C)C[C@H](NC(=O)[C@H](CC(C)C)NC(=O)[C@@H](NC(=O)[C@@H](NC(=O)[C@@H](NC(=O)[C@H](CCC(N)=O)NC(=O)[C@H](CCC(N)=O)NC(=O)[C@H](CCCCN)NC(=O)[C@@H](N)CCCCN)[C@@H](C)O)C(C)C)[C@@H](C)O)C(=O)O [Epitope Y196] (H-KKQQTVTLL-OH; N-terminus and C-terminus assumed)	pIC50	< 4.82

Please turn your attention to the following entry.
Query: Bench note: what pIC50 did CSCC[C@H](NC(=O)[C@H](CO)NC(=O)[C@H](CCC(N)=O)NC(=O)[C@H](CCC(N)=O)NC(=O)[C@H](CC(C)C)NC(=O)[C@H](CCC(N)=O)NC(=O)[C@H](CCCCN)NC(=O)[C@H](CO)NC(=O)[C@@H](N)Cc1ccccc1)C(=O)O [Epitope Y135] (H-FSKQLQQSM-OH; N-terminus and C-terminus assumed) show?
Result: < 4.82

###

# assay_target: HLA-C0702 (Homo sapiens, UniProt P10321)
# method_description: Competitive peptide binding assay, CIR-C0702
Peptide text beside a SMILES is read from it.
property: IC50

Use the examples below as a reference point.
compound	property	result
CC(C)C[C@H](NC(=O)[C@H](CC(C)C)NC(=O)[C@H](Cc1ccccc1)NC(=O)[C@@H](NC(=O)[C@H](CCCNC(=N)N)NC(=O)[C@@H]1CCCN1C(=O)[C@H](CCC(N)=O)NC(=O)[C@H](CC(C)C)NC(=O)[C@@H](N)Cc1ccc(O)cc1)[C@@H](C)O)C(=O)O [Epitope M35] (H-YLQPRTFLL-OH; N-terminus and C-terminus assumed)	IC50	< 5 µM
C[C@H](NC(=O)[C@H](Cc1ccc(O)cc1)NC(=O)[C@H](C)NC(=O)[C@@H](N)Cc1ccccc1)C(=O)N[C@@H](CC(N)=O)C(=O)N[C@@H](CCCNC(=N)N)C(=O)N[C@@H](CC(N)=O)C(=O)N[C@@H](CCCNC(=N)N)C(=O)N[C@@H](Cc1ccccc1)C(=O)O [Epitope M43] (H-FAYANRNRF-OH; N-terminus and C-terminus assumed)	IC50	5 to 15 µM
CC[C@H](C)[C@H](NC(=O)[C@H](CCCNC(=N)N)NC(=O)[C@H](CO)NC(=O)[C@H](CCSC)NC(=O)CNC(=O)[C@@H](N)Cc1ccccc1)C(=O)NCC(=O)N[C@@H](CCSC)C(=O)N[C@@H](CCC(=O)O)C(=O)N[C@H](C(=O)O)C(C)C [Epitope M19] (H-FGMSRIGMEV-OH; N-terminus and C-terminus assumed)	IC50	> 15 µM
CSCC[C@H](NC(=O)[C@H](C)NC(=O)[C@@H]1CCCN1C(=O)[C@H](CC(=O)O)NC(=O)[C@H](C)NC(=O)[C@H](C)NC(=O)[C@H](Cc1ccc(O)cc1)NC(=O)[C@@H](NC(=O)[C@@H](N)CC(C)C)C(C)C)C(=O)O [Epitope M58] (H-LVYAADPAM-OH; N-terminus and C-terminus assumed)	IC50	> 15 µM
CC[C@H](C)[C@H](NC(=O)[C@H](Cc1ccccc1)NC(=O)[C@@H](N)Cc1ccc(O)cc1)C(=O)N[C@@H](C)C(=O)N[C@@H](CO)C(=O)N[C@@H](Cc1ccccc1)C(=O)N[C@@H](CCCNC(=N)N)C(=O)N[C@@H](CC(C)C)C(=O)N[C@@H](Cc1ccccc1)C(=O)O [Epitope M107] (H-YFIASFRLF-OH; N-terminus and C-terminus assumed)	IC50	> 15 µM

Shifting focus to the compound that follows.
Query: IC50 lookup needed for CSCC[C@H](NC(=O)[C@H](CO)NC(=O)[C@H](Cc1ccccc1)NC(=O)[C@H](Cc1c[nH]cn1)NC(=O)[C@H](CCCCN)NC(=O)[C@H](CCCNC(=N)N)NC(=O)[C@H](CC(C)C)NC(=O)[C@H](Cc1ccc(O)cc1)NC(=O)[C@H](C)NC(=O)[C@@H](N)Cc1ccc(O)cc1)C(=O)O [Epitope M26] (H-YAYLRKHFSM-OH; N-terminus and C-terminus assumed) , thanks.
Result: > 15 µM

Value source: paper PMC12133982
